# credit: the supplement of paper PMC9112550

// shrunken log2 fold change lookup, one value per entry
Test system: Escherichia coli TOP10
Assay: shrunken log2 fold change of peptide-encoding DNA abundance (4.5 h post-induction vs induction); higher = less antimicrobial activity (less host growth inhibition)
Details: time post-induction: 4.5 h; library: site-saturation at positions 5, 18, 19, 20
readout_label: shrunken log2 fold change

{"polymer_sequence": "RRIRSRPPRLPRPRPRPSDFPRP", "readout_label": "shrunken log2 fold change", "result": -0.536}
{"polymer_sequence": "RRIRPRPPRLPRPRPRPQGTPRP", "readout_label": "shrunken log2 fold change", "result": 0.306}
{"polymer_sequence": "RRIRRRPPRLPRPRPRPNWKPRP", "readout_label": "shrunken log2 fold change", "result": -0.0144}
{"polymer_sequence": "RRIRCRPPRLPRPRPRPWLDPRP", "readout_label": "shrunken log2 fold change", "result": -0.273}
{"polymer_sequence": "RRIRQRPPRLPRPRPRPMIIPRP", "readout_label": "shrunken log2 fold change", "result": 0.0698}
{"polymer_sequence": "RRIRPRPPRLPRPRPRPPNWPRP", "readout_label": "shrunken log2 fold change", "result": 0.534}
{"polymer_sequence": "RRIRERPPRLPRPRPRPWKTPRP", "readout_label": "shrunken log2 fold change", "result": 0.0324}
{"polymer_sequence": "RRIRDRPPRLPRPRPRPNPPPRP", "readout_label": "shrunken log2 fold change", "result": 0.2}

----------
// shrunken log2 fold change lookup, one value per entry
System: Escherichia coli TOP10;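 note: peptides expressed intracellularly from a pBAD plasmid library in pooled LB shake-flask culture, induced with 0.3% L-arabinose, DNA abundance read by NGS, three biological replicates, DESeq2 with apeglm shrinkage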
Assay: shrunken log2 fold change of peptide-encoding DNA abundance (4.5 h post-induction vs induction); higher = less antimicrobial activity (less host growth inhibition)
Conditions: time post-induction: 4.5 h; library: site-saturation at positions 5, 18, 19, 20

{"polymer_sequence": "RRIRFRPPRLPRPRPRPLPQPRP", "shrunken log2 fold change": 1.15}
{"polymer_sequence": "RRIRMRPPRLPRPRPRPSQFPRP", "shrunken log2 fold change": 0.379}
{"polymer_sequence": "RRIRWRPPRLPRPRPRPAGKPRP", "shrunken log2 fold change": 0.0305}
{"polymer_sequence": "RRIRFRPPRLPRPRPRPNGMPRP", "shrunken log2 fold change": -0.0957}
{"polymer_sequence": "RRIRMRPPRLPRPRPRPVRAPRP", "shrunken log2 fold change": 1.08}
{"polymer_sequence": "RRIRKRPPRLPRPRPRPTMRPRP", "shrunken log2 fold change": 1.02}
{"polymer_sequence": "RRIRDRPPRLPRPRPRPECVPRP", "shrunken log2 fold change": 1.3}
{"polymer_sequence": "RRIRKRPPRLPRPRPRPWFNPRP", "shrunken log2 fold change": -0.209}
{"polymer_sequence": "RRIRIRPPRLPRPRPRPIFWPRP", "shrunken log2 fold change": 0.397}
{"polymer_sequence": "RRIRERPPRLPRPRPRPAATPRP", "shrunken log2 fold change": 0.222}
{"polymer_sequence": "RRIRHRPPRLPRPRPRPPPGPRP", "shrunken log2 fold change": 0.769}
{"polymer_sequence": "RRIRHRPPRLPRPRPRPNSHPRP", "shrunken log2 fold change": -1.09}
{"polymer_sequence": "RRIRGRPPRLPRPRPRPKVVPRP", "shrunken log2 fold change": 0.12}
{"polymer_sequence": "RRIRLRPPRLPRPRPRPHPSPRP", "shrunken log2 fold change": -0.0856}
{"polymer_sequence": "RRIRRRPPRLPRPRPRPAIWPRP", "shrunken log2 fold change": 0.356}
{"polymer_sequence": "RRIRGRPPRLPRPRPRPDPCPRP", "shrunken log2 fold change": 0.624}
{"polymer_sequence": "RRIRHRPPRLPRPRPRPWGNPRP", "shrunken log2 fold change": -0.0654}
{"polymer_sequence": "RRIRCRPPRLPRPRPRPCDPPRP", "shrunken log2 fold change": -0.0532}
{"polymer_sequence": "RRIRIRPPRLPRPRPRPYDHPRP", "shrunken log2 fold change": -0.285}
{"polymer_sequence": "RRIRMRPPRLPRPRPRPPGMPRP", "shrunken log2 fold change": 1.08}
{"polymer_sequence": "RRIRMRPPRLPRPRPRPHPKPRP", "shrunken log2 fold change": 0.0698}
{"polymer_sequence": "RRIRPRPPRLPRPRPRPTFAPRP", "shrunken log2 fold change": 0.409}
{"polymer_sequence": "RRIRVRPPRLPRPRPRPMTNPRP", "shrunken log2 fold change": -0.256}
{"polymer_sequence": "RRIRMRPPRLPRPRPRPDDLPRP", "shrunken log2 fold change": 2.58}
{"polymer_sequence": "RRIRKRPPRLPRPRPRPTKRPRP", "shrunken log2 fold change": 0.697}
{"polymer_sequence": "RRIRERPPRLPRPRPRPQSKPRP", "shrunken log2 fold change": -0.769}
{"polymer_sequence": "RRIRARPPRLPRPRPRPMTFPRP", "shrunken log2 fold change": -0.191}
{"polymer_sequence": "RRIRCRPPRLPRPRPRPCDNPRP", "shrunken log2 fold change": -0.0831}
{"polymer_sequence": "RRIRKRPPRLPRPRPRPPELPRP", "shrunken log2 fold change": 0.23}
{"polymer_sequence": "RRIRHRPPRLPRPRPRPEFHPRP", "shrunken log2 fold change": -0.0718}
{"polymer_sequence": "RRIRYRPPRLPRPRPRPARDPRP", "shrunken log2 fold change": 0.197}
{"polymer_sequence": "RRIRPRPPRLPRPRPRPSMMPRP", "shrunken log2 fold change": -0.412}
{"polymer_sequence": "RRIRKRPPRLPRPRPRPHVKPRP", "shrunken log2 fold change": -0.258}
{"polymer_sequence": "RRIRWRPPRLPRPRPRPNYVPRP", "shrunken log2 fold change": -0.128}
{"polymer_sequence": "RRIRVRPPRLPRPRPRPMFLPRP", "shrunken log2 fold change": -0.557}
{"polymer_sequence": "RRIRCRPPRLPRPRPRPIVYPRP", "shrunken log2 fold change": -0.788}
{"polymer_sequence": "RRIRIRPPRLPRPRPRPSETPRP", "shrunken log2 fold change": -0.297}
{"polymer_sequence": "RRIRCRPPRLPRPRPRPARIPRP", "shrunken log2 fold change": 0.0785}
{"polymer_sequence": "RRIRWRPPRLPRPRPRPLESPRP", "shrunken log2 fold change": 0.176}
{"polymer_sequence": "RRIRVRPPRLPRPRPRPEPTPRP", "shrunken log2 fold change": 0.0442}
{"polymer_sequence": "RRIRPRPPRLPRPRPRPIYNPRP", "shrunken log2 fold change": -0.837}
{"polymer_sequence": "RRIRQRPPRLPRPRPRPWNEPRP", "shrunken log2 fold change": -0.139}
{"polymer_sequence": "RRIRERPPRLPRPRPRPNCIPRP", "shrunken log2 fold change": -0.712}
{"polymer_sequence": "RRIRGRPPRLPRPRPRPMISPRP", "shrunken log2 fold change": 1.18}
{"polymer_sequence": "RRIRCRPPRLPRPRPRPMHDPRP", "shrunken log2 fold change": 0.0244}
{"polymer_sequence": "RRIRYRPPRLPRPRPRPGIFPRP", "shrunken log2 fold change": -0.708}
{"polymer_sequence": "RRIRHRPPRLPRPRPRPDFWPRP", "shrunken log2 fold change": 0.372}
{"polymer_sequence": "RRIRNRPPRLPRPRPRPFLDPRP", "shrunken log2 fold change": -0.358}
{"polymer_sequence": "RRIRHRPPRLPRPRPRPSLAPRP", "shrunken log2 fold change": -0.219}
{"polymer_sequence": "RRIRARPPRLPRPRPRPFYVPRP", "shrunken log2 fold change": -0.383}
{"polymer_sequence": "RRIRLRPPRLPRPRPRPRHGPRP", "shrunken log2 fold change": 0.414}
{"polymer_sequence": "RRIRPRPPRLPRPRPRPMRLPRP", "shrunken log2 fold change": 0.0536}
{"polymer_sequence": "RRIRARPPRLPRPRPRPRHLPRP", "shrunken log2 fold change": 0.11}
{"polymer_sequence": "RRIRDRPPRLPRPRPRPIAHPRP", "shrunken log2 fold change": 0.41}
{"polymer_sequence": "RRIRGRPPRLPRPRPRPSWAPRP", "shrunken log2 fold change": 0.532}
{"polymer_sequence": "RRIRYRPPRLPRPRPRPCYIPRP", "shrunken log2 fold change": -0.189}
{"polymer_sequence": "RRIRVRPPRLPRPRPRPNWTPRP", "shrunken log2 fold change": 0.0136}
{"polymer_sequence": "RRIRYRPPRLPRPRPRPHDSPRP", "shrunken log2 fold change": -0.08}
{"polymer_sequence": "RRIRTRPPRLPRPRPRPFVWPRP", "shrunken log2 fold change": 0.00322}
{"polymer_sequence": "RRIRWRPPRLPRPRPRPYNKPRP", "shrunken log2 fold change": -1.34}
{"polymer_sequence": "RRIRARPPRLPRPRPRPEPYPRP", "shrunken log2 fold change": 0.34}
{"polymer_sequence": "RRIRYRPPRLPRPRPRPALKPRP", "shrunken log2 fold change": 0.0554}
{"polymer_sequence": "RRIRLRPPRLPRPRPRPIKKPRP", "shrunken log2 fold change": 0.0365}
